- Tested on: Musca domestica (houseflies - adults)
- ASSAY PROTOCOL: Contact test on houseflies - adults (MD), Cotton wool/sugar, mortality
- Type: in vivo
- STUDY CONDITIONS: 72 h, 500 ppm, contact, 3 days, read-out: MD grading of mortality
ASSAY ENDPOINT: mortality at 500 ppm

// C=C(C)C(C(=O)OCc1c(F)c(F)c(COC)c(F)c1F)c1cnc(C(C)(C)C)nc1 (racemic) [Compound 202] : mortality at 500 ppm value = < 50%

// COCc1c(F)c(F)c(COC(=O)C(c2cnc(C3(C)CC3)nc2)C(C)(C)C)c(F)c1F (racemic) [Compound 139] : mortality at 500 ppm value = 80 to 100%

// COCc1c(F)c(F)c(CSC(=O)C(c2cnc(C(C)(C)C)nc2)C(C)(C)C)c(F)c1F (racemic) [Compound 195] : mortality at 500 ppm value = < 50%

// CC(C)(C)c1ncc(C(C(=O)OCc2c(F)c(F)c(CC3CC3)c(F)c2F)C(C)(C)C)cn1 (racemic) [Compound 179] : mortality at 500 ppm value = < 50%
